biological target: Human STING (Homo sapiens, UniProt Q86WV6); test: Human STING reporter assay, Tables 6-8 (variant named only in a drawing); conditions: read-out: Human STING EC50 (μM); Table 6; head only in drawing 188; ammonium salt form except Compounds 26, 33, 34 (bis-TEA salts)
Sequence (Q86WV6 whole entry): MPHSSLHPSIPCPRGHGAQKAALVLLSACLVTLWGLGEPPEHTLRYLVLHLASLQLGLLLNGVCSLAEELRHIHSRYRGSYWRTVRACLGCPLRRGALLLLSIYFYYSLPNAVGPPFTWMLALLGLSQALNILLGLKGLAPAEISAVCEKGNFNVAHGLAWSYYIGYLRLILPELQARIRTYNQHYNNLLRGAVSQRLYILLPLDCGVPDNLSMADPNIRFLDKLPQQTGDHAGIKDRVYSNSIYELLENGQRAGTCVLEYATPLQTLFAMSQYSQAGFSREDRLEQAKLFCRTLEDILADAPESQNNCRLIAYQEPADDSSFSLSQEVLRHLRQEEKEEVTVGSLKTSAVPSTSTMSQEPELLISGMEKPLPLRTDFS
REPORTED_METRIC: EC50 (µM)
# number only, unit µM dropped from output

{"MOLECULE": "O=[P@]1(S)OC[C@H]2OC3[C@H](F)[C@@H]2O[P@](=O)(S)OC[C@H]2O[C@H]([C@H](F)[C@@H]2O1)n1cnc2c(ncnc21)NCC#CCNc1ncnc2c1ncn23", "ASSAY_RESULT": 8.4}
{"MOLECULE": "O=[P@]1(S)OC[C@H]2OC3[C@H](F)[C@@H]2O[P@](=O)(S)OC[C@H]2O[C@H]([C@H](F)[C@@H]2O1)n1cnc2c(ncnc21)NCC1NC1CNc1ncnc2c1ncn23 (single isomer, unassigned) [Compound 36]", "ASSAY_RESULT": 94.1}
{"MOLECULE": "O=[P@]1(S)OC[C@H]2OC3[C@H](F)[C@@H]2O[P@](=O)(S)OC[C@H]2O[C@H]([C@H](F)[C@@H]2O1)n1cnc2c(ncnc21)NCC1NC1CNc1ncnc2c1ncn23 (single isomer, unassigned) [Compound 35]", "ASSAY_RESULT": 67.2}

# molecule `O=[P@@]1(S)OC[C@H]2O[C@@H]3[C@H](F)[C@@H]2O[P@](=O)(S)OC[C@H]2OC([C@H](F)[C@@H]2O1)n1cnc2c(ncnc21)OC/C=C/COc1ncnc2c1ncn23` ; its EC50 = 7.4
